// provenance: patent US20120108796A1

Consider the following binders and their measured EC50, FXa restoring assay readings.
Target: recombinant TFPI of the FXa restoring assay (human, mouse or rat; species not stated for Tables 9 and 10)
Assay: cell-based or functional assay

- BINDER: "2A8-127 (Fab, V domains shown) VH: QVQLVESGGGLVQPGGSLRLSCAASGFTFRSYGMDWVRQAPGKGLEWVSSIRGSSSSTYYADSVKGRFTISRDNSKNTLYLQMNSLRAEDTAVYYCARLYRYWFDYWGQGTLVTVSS VL: DIELTQPPSVSVAPGQTARISCSGDNLRNYYAHWYQQKPGQAPVVVIFYDVNRPSDIPERFSGSNSGNTATLTISGTQAEDEADYYCQSWDDGVPWFGGGTKLTVLG"
  EC50, FXa restoring assay, nM: 0.44
- BINDER: "2A8-216 (Fab, V domains shown) VH: QVQLVESGGGLVQPGGSLRLSCAASGFTFRVYGMSWVRQAPGKGLEWVSSDRGSRSSTYYADSVKGRFTISRDNSKNTLYLQMNSLRAEDTAVYYCARVYRYWFDYWGQGTLVTVSS VL: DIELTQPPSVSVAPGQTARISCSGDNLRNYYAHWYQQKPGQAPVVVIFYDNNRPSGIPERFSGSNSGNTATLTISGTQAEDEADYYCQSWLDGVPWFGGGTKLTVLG"
  EC50, FXa restoring assay, nM: 1.08
- BINDER: "2A8-200 (Fab, V domains shown) VH: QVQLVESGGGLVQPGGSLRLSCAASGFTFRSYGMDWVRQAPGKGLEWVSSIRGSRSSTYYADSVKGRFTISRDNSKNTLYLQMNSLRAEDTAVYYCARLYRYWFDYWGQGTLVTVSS VL: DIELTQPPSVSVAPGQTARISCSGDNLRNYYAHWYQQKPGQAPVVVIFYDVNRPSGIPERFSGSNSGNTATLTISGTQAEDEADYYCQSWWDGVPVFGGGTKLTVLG"
  EC50, FXa restoring assay, nM: 0.81
